Every entry's value here was drawn from paper PMC7125926.

test system: influenza virus; assay type: in vivo, mice; details: Fig. S5
measure.name: protection of mice from lethal doses of influenza virus infection (in words)

# molecule, observed.value
measured = [
    ("Clc1ccccc1C(c1ccccc1)(c1ccccc1)n1ccnc1", "failed to protect mice"),
    ("CCCC(C(=O)OCCN(CC)CC)(c1ccccc1)c1ccccc1", "failed to protect mice"),
    ("CN(C)CCCOc1nn(Cc2ccccc2)c2ccccc12", "failed to protect mice"),
    ("CC(C)OC(=O)C(C)(C)Oc1ccc(C(=O)c2ccc(Cl)cc2)cc1 [Fenofibrate]", "failed to protect mice"),
]

* * *

test: MTT assay of drug toxicity in mouse lung slices; format: cell-based
Where a name gives a salt, the structure may show the parent alone.
Parameter: CC50 at 48 h. Scope: all listed entries.

# compound, censoring.sign, CC50 at 48 h (µM)
measured = [
    ("CN(C)CCCOc1nn(Cc2ccccc2)c2ccccc12", "=", 113),
    ("Clc1ccccc1C(c1ccccc1)(c1ccccc1)n1ccnc1", "=", 16.3),
    ("NC(=O)c1ncn([C@@H]2O[C@H](CO)[C@@H](O)[C@H]2O)n1", ">", 200),
    ("CC(C)OC(=O)C(C)(C)Oc1ccc(C(=O)c2ccc(Cl)cc2)cc1 [Fenofibrate]", ">", 200),
    ("CCN(CC)CCOC(=O)C(Cc1cccc2ccccc12)CC1CCCO1 (stereo not shown) [Nafronyl oxalate]", "=", 122),
    ("CCCC(C(=O)OCCN(CC)CC)(c1ccccc1)c1ccccc1", "=", 32.2),
    ("C[S+]([O-])c1ccc(-c2nc(-c3ccncc3)c(-c3ccc(F)cc3)[nH]2)cc1 (stereo not shown)", ">", 100),
]
